Attribution: patent US12187742B2

molecular target: DNA-PK (Homo sapiens (Human), UniProt P78527); experiment: DNA-PK Enzyme-Linked Immunosorbent Assay (phosphorylation of GST-p53 (1-101) peptide); type: biochemical; conditions: ELISA, 20 μM ATP
pIC50: −log10 of the molar value. Where a name gives a salt, the structure may show the parent alone.
The compounds listed here are annotated with their pIC50.

A selection of reference data follows.
compound	tgt	pIC50
CC(C)NCCOc1ncc(-c2cc3c4c(cnc3cc2F)N(C)C(=O)C42CN(c3ccc4c(c3)OCCO4)C2)cc1NS(C)(=O)=O	DNA-PK (Homo sapiens (Human), UniProt P78527)	9.00 to 9.30
Cc1ncc(S(=O)(=O)Nc2cc(-c3cc4c5c(cnc4cc3F)N(C)C(=O)C53CN(c4ccccc4)C3)cnc2OCCNC(C)C)s1	DNA-PK (Homo sapiens (Human), UniProt P78527)	7.00 to 9.00
CC(C)NCCOc1ncc(-c2cc3c(cc2F)ncc2c3[C@]3(C[C@@H](Nc4ccccc4)C3)C(=O)N2C)cc1NS(C)(=O)=O [Example 460, hydrochloride]	DNA-PK (Homo sapiens (Human), UniProt P78527)	7.00 to 9.00
COCc1ccc(N2CC3(C2)C(=O)N(C)c2cnc4cc(F)c(-c5cnc(OCCNC(C)C)c(NS(C)(=O)=O)c5)cc4c23)cc1	DNA-PK (Homo sapiens (Human), UniProt P78527)	> 9.30
COc1ccccc1N1CC2(C1)C(=O)N(C)c1cnc3cc(F)c(-c4cnc(OCCNC(C)C)c(NS(C)(=O)=O)c4)cc3c12	DNA-PK (Homo sapiens (Human), UniProt P78527)	7.00 to 9.00

# pIC50 (compound: `CC(C)NCCOc1ncc(-c2cc3c4c(cnc3cc2F)N(C)C(=O)C42CN(C(C)C)C2)cc1NS(=O)(=O)C(C)C` ) is 7.00 to 9.00

* * *

molecular target: ATM (Homo sapiens (Human), UniProt Q13315); assay: ATM in Cell Western Assay (pKAP1 in etoposide-treated MCF-7 cells); format: cell-based; conditions: pKAP1 in etoposide-treated MCF-7 cells
Sequence (Q13315 whole entry): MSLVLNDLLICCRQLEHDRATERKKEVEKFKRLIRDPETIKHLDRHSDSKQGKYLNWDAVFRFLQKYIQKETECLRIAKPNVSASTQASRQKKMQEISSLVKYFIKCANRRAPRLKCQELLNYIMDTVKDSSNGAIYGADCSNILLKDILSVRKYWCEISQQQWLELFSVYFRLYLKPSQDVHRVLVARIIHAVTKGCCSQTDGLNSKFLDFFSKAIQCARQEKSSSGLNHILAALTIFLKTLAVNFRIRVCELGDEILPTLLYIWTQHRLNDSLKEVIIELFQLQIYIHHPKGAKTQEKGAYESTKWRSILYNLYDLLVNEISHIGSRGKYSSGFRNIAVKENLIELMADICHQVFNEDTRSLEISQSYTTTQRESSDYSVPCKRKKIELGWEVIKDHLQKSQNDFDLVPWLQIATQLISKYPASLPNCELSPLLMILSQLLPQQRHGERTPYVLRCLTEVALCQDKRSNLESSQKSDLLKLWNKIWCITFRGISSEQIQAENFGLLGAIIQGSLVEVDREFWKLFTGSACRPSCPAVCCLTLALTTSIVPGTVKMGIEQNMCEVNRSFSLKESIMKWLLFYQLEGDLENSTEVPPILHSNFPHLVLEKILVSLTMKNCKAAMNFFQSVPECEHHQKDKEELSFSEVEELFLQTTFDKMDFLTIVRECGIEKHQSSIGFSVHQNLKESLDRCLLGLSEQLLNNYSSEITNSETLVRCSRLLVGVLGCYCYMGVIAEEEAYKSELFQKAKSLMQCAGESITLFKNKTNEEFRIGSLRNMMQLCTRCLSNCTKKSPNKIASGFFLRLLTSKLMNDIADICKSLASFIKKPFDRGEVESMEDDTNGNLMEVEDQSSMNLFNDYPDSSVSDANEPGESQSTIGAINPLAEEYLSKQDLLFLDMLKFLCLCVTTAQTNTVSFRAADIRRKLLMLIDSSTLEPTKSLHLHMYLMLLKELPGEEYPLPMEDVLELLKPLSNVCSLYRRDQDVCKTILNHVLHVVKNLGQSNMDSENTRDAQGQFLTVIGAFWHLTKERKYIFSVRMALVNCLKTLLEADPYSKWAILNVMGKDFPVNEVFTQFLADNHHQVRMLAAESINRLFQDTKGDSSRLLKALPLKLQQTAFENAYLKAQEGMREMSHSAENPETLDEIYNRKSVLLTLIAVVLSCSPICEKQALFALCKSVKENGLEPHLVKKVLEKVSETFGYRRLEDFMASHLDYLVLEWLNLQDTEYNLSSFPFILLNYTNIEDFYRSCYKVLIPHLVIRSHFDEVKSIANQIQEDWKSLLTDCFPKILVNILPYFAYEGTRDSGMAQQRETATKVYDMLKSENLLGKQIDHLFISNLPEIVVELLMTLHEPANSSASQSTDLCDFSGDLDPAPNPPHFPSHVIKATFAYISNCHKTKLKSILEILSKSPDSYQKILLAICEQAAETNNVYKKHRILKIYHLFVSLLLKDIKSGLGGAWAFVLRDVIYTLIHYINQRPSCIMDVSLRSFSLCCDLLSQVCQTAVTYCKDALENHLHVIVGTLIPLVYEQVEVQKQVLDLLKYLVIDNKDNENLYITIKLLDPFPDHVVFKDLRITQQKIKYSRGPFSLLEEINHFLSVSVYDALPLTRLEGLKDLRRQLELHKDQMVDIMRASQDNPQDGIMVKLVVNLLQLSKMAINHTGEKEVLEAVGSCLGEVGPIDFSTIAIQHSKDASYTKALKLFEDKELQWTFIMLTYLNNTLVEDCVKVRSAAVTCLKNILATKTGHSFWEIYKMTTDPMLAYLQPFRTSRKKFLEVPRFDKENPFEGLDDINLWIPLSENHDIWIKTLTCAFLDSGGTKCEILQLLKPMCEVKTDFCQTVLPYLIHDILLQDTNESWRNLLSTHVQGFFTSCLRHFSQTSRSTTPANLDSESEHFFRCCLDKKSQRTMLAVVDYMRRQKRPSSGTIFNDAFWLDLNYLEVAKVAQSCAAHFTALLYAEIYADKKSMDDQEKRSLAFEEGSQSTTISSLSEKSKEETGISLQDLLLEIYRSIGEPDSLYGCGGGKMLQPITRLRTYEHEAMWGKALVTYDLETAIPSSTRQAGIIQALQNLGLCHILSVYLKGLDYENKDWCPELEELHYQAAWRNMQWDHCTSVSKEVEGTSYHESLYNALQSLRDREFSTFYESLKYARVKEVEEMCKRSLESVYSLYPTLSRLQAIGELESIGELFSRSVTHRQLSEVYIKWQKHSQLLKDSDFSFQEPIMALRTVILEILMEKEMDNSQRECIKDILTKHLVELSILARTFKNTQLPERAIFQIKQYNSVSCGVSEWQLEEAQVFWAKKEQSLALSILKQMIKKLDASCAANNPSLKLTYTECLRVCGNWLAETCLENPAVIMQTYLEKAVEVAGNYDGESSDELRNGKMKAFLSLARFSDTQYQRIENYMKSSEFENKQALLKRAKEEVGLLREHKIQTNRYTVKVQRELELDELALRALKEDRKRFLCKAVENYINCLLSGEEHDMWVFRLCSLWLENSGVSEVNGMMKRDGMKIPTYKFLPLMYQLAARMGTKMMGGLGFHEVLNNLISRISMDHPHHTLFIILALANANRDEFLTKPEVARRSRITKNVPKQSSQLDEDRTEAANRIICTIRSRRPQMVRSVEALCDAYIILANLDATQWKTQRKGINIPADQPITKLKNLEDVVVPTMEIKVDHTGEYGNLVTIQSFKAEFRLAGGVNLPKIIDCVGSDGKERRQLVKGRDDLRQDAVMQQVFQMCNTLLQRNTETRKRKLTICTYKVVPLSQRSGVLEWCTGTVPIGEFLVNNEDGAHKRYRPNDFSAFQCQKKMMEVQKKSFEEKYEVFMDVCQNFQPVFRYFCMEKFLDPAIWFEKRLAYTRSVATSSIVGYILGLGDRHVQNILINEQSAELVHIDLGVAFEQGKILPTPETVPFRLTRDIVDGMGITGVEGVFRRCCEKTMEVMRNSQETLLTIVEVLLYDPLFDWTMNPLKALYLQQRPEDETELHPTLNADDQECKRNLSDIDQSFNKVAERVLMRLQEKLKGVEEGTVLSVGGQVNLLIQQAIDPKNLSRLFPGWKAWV
Counter-ions that a name gives are not always drawn.
The compounds listed here are annotated with their IC50.

A selection of reference data follows.
compound	IC50
CN1C(=O)C2(CCC2)c2c1cnc1ccc(-c3cnc(N4CCC(N(C)C)C4)c(NS(C)(=O)=O)c3)cc21 (racemic)	1 to 100 nM
CC(C)NCCOc1ncc(-c2cc3c(cc2F)ncc2c3[C@]3(C[C@@H](CN(C)C)C3)C(=O)N2C)cc1NS(C)(=O)=O	1 to 100 nM
CO[C@H]1C[C@@]2(C1)C(=O)N(C)c1cnc3cc(F)c(-c4cnc(OCCNC(C)C)c(NS(=O)(=O)C5CC5)c4)cc3c12	1 to 100 nM
CO[C@H]1C[C@@]2(C1)C(=O)N(C)c1cnc3cc(F)c(-c4cnc(OCCNC(C)C)c(NS(=O)(=O)N(C)C)c4)cc3c12	1 to 100 nM
CN1C(=O)C2(CCC2)c2c1cnc1cc(F)c(-c3cnc(OCCNCC(F)(F)F)c(NS(C)(=O)=O)c3)cc21 [Example 378, hydrochloride]	> 100 nM

Okay, next one:
# IC50 (compound: CCC(C)N1CC2(C1)C(=O)N(C)c1cnc3cc(F)c(-c4cnc(OCCNC(C)C)c(NS(C)(=O)=O)c4)cc3c12 (stereo not drawn) ) is 1 to 100 nM
